Source listed as BindingDB's records for PubMed 39011823.

Target: Leucyl-cystinyl aminopeptidase (Homo sapiens)
Experiment: Inhibition of IRAP (unknown origin) using L-AMC as substrate
Kindly apply the following: 1 if IC50 is less than 300 nM, -1 in every other case.

Example results:
* CC(C)C[C@H](CP(=O)(O)[C@@H](N)CCc1ccccc1)C(N)=O | 1
* COc1ccc(C(=O)O)cc1S(=O)(=O)N(C)c1cc(C(F)(F)F)ccc1N1CCN(C)CC1 | -1
* CC(C)C[C@@H](CP(=O)(O)[C@@H](N)CCc1ccccc1)C(N)=O | -1

Confirm or reject: IC50 of O=C(NO)[C@H](Cc1ccc(Oc2ccccc2)cc1)n1cc(CNS(=O)(=O)c2ccc(-c3ccccn3)s2)nn1 [US20240101542, Compound 23] lies strictly below 300 nM
-1

Please state whether IC50 is below 300 nM for O=C(C[C@H](Cc1ccc(O)cc1)n1nncc1CNS(=O)(=O)c1ccc(-c2ccccn2)s1)NO [US20240101542, Compound 33]
1

Input COc1ccc(C[C@@H](C(=O)NO)n2cc(CNS(=O)(=O)c3ccc(-c4ccccn4)s3)nn2)cc1 [US20240101542, Compound 25] ; condition: IC50 strictly below 300 nM. Does it hold?
1

====

Record form. Attribute: IC50. Fill in for each entry.
Target: Leucyl-cystinyl aminopeptidase (Homo sapiens) (UniProt Q9UIQ6)
Sequence (Q9UIQ6 whole entry, looked up): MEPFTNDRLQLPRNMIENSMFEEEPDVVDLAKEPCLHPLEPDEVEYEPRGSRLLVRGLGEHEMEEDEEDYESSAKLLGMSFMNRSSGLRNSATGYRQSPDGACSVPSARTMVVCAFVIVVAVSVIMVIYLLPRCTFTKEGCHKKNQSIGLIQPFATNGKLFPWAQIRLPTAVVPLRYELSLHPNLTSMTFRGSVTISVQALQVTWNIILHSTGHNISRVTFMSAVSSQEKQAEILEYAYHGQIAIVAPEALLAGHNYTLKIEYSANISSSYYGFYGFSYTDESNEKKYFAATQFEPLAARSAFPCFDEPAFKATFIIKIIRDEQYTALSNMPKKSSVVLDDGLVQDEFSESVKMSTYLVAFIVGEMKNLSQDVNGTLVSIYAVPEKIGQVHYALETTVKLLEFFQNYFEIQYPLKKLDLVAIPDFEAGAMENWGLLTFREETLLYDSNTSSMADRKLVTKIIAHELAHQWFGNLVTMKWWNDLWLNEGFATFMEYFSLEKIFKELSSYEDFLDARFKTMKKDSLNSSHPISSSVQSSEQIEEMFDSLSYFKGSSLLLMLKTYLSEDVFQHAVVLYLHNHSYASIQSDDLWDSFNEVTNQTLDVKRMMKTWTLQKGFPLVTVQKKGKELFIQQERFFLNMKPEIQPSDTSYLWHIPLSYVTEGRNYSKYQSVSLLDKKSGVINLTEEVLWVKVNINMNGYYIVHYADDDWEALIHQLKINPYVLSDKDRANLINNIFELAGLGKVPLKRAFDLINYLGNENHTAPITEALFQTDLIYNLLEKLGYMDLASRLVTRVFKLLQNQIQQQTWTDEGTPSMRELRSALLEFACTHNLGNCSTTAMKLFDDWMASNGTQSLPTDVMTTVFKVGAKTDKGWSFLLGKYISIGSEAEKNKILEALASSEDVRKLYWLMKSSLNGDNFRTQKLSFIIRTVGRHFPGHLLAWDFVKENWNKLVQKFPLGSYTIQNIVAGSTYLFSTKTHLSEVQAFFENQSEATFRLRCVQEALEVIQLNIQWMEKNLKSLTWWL
Assay: Inhibition of IRAP (unknown origin) using L-AMC as substrate
Give bare numbers, in nM.

Worked examples follow.
- COc1ccc(C(=O)O)cc1S(=O)(=O)N(C)c1cc(C(F)(F)F)ccc1N1CCCCC1: 160000
- COc1ccc(C[C@@H](C(=O)NO)n2cc(CNS(=O)(=O)c3ccc(-c4ccccc4)s3)nn2)cc1: 383

Return reported IC50; argument: `C#C[C@H](CP(=O)(O)[C@@H](N)CCc1ccccc1)C(=O)N[C@@H](Cc1ccccc1)C(N)=O`
2

====

Target: Insulin-regulated aminopeptidase (Homo sapiens)
Test: Inhibition of human recombinant IRAP expressed in baculovirus infected Sf9 cells using L-AMC as substrate incubated for 5 to 10 mins by Michaelis-Menten analysis
measure_name: IC50

* NC1CCc2c(Br)ccc(-c3ccccc3)c2CC1=O (configuration not stated) | 120 nM

Alright, here's another compound for you.
Please report the recorded IC50 for NC1CCc2c(Br)ccc(Br)c2CC1=O (configuration not stated) .
34 nM
